- System: rtA181T mutant lab HBV strain (ayw)
- Assay Explanation: Adefovir susceptibility of standard HBV lab strain carrying rtA181T
- Type: cell-based, hepatitis B virus
- Experimental Context: Hepatitis B virus
Reported Property: IC50 (nM)

>>> result_value("Nc1ncnc2c1ncn2CCOCP(=O)(O)O")
240

----------
- System: wild-type HBV (baseline patient-derived clones)
- Assay Explanation: Whole HBV genome cell culture drug susceptibility assay, baseline wild-type patient-derived clones
- Format: cell-based, hepatitis B virus
- Experimental Context: Hepatitis B virus, HepG2, 168 h, read-out: Adefovir IC50 Baseline, patient 0454-2506, baseline wild-type clones; HepG2, 7 days
pIC50: −log10 of the molar value.
Reported Property: pIC50

>>> result_value("Nc1ncnc2c1ncn2CCOCP(=O)(O)O")
6.68

Cited source for all entries: patent US20040191763A1
